Data provenance: patent US11964971B2

List of MDCK-MDR1: % Recov B-A (%) values.
System: MDR1-MDCK cell monolayers
Conditions: dog, MDCK-MDR1, 120 min, 5 μM, pH 7.4
measured.parameter: MDCK-MDR1: % Recov B-A (%)

compound | measured.parameter | numeric.value
CN(C)C(=O)c1cc2cc(O)c(-c3cnc(N(C)[C@@H]4C[C@H]5CCC(N5)[C@@H]4F)cn3)cc2o1 (single isomer, unassigned) | MDCK-MDR1: % Recov B-A (%) | 88
COc1cc(-c2cc(O)c(-c3cnc(N(C4CC4)[C@@H]4CC5CC[C@H](N5)[C@@H]4F)cn3)cc2F)ccn1 (single isomer, unassigned) | MDCK-MDR1: % Recov B-A (%) | 37
CN(c1cnc(-c2cc(F)c(-c3cn[nH]c3)cc2O)cn1)[C@@H]1CC2CC[C@H](N2)[C@@H]1F (single isomer, unassigned) | MDCK-MDR1: % Recov B-A (%) | 75
CN(c1cnc(-c2cc(F)c(-n3ccnn3)cc2O)cn1)[C@H]1C[C@@H]2CCC(N2)[C@H]1F (single isomer, unassigned) | MDCK-MDR1: % Recov B-A (%) | 85
COc1cc(-c2ccc(-c3cnc(N(C)[C@H]4C[C@]5(C)CCC[C@@](C)(N5)[C@H]4F)cn3)c(O)c2)cnn1 | MDCK-MDR1: % Recov B-A (%) | 44
CNC(=O)/C=C/c1cc(O)c(-c2cnc(N(C)[C@@H]3CC4CC[C@H](N4)[C@@H]3F)cn2)cc1F (single isomer, unassigned) | MDCK-MDR1: % Recov B-A (%) | 88

###

Tested on: MDR1
Test: in vitro
Details: dog, MDCK-MDR1, pH 7.4, MDCK-MDR1: Papp B-A (10^−6, cm/s)

compound | Papp B→A at 120 min, 5 μM, ×10⁻⁶ cm/s
COc1cc(-c2ccc(-c3cnc(N(C)[C@H]4C[C@@H]5COCC(N5)[C@H]4F)cn3)c(O)c2)cnn1 (single isomer, unassigned) | 63.2
Cn1cc(-c2cc(O)c(-c3cnc(N(C4CC4)[C@@H]4C[C@H]5CC[C@H](N5)[C@@H]4F)cn3)cc2F)cn1 | 17.9
COc1cc(-c2ccc(-c3cnc(N(C)[C@H]4C[C@]5(C)CCC[C@@](C)(N5)[C@H]4F)cn3)c(O)c2)cnn1 | 6.99

###

System: MDR1-MDCK cell monolayers
Settings: dog, MDCK-MDR1, 120 min, 5 μM, pH 7.4
Please note: MDCK-MDR1: % Recov B-A (%) exactly at 50% is not satisfied. Only values below 50% get satisfied.

compound | class
Cn1ccc(-c2cc(O)c(-c3cnc(N(C4CC4)[C@@H]4CC5CC[C@H](N5)[C@@H]4F)cn3)cc2F)cc1=O (single isomer, unassigned) | not satisfied
COc1cc(-c2ccc(-c3cnc(N(C4CC4)[C@@H]4CC5CC[C@H](N5)[C@@H]4F)cn3)c(O)c2)ccn1 (single isomer, unassigned) | satisfied
CN(c1cnc(-c2cc(F)c(-c3ccn(C)c(=O)c3)cc2O)cn1)[C@H]1C[C@@H]2CCC(N2)[C@H]1F (single isomer, unassigned) | not satisfied
CN(c1cnc(-c2ccc(-c3cnn(C)c3)cc2O)cn1)[C@H]1CC2CC[C@@H](N2)[C@H]1F (single isomer, unassigned) | not satisfied

###

Tested on: MDR1 (P-gp)
Test: in vitro
Conditions: dog, MDCK-MDR1, pH 7.4
measured.parameter: efflux ratio at 120 min, 5 μM

molecule | result
CNC(=O)/C=C/c1cc(O)c(-c2cnc(N(C3CC3)[C@H]3C[C@]4(C)CC[C@@](C)(N4)[C@H]3F)cn2)cc1F (single isomer, unassigned) [Compound 79E2] | 26
